Tested on: OVCAR-3 human ovarian adenocarcinoma cell line
Assay: SRB cell proliferation (cytotoxicity) assay, OVCAR-3
Settings: read-out: LC50: Concentration for 50% cell death; OVCAR-3
Reported CC50 values for the following molecules.
Readout Label: CC50 (µM)

INSERT INTO assay_data (molecule, readout_units, inequality_operator, measured_value) VALUES
  ('AGCTGACACAGCAGGTTGGTGCGCCCAATACAGGCGCAGTATCTGTCCGTGGGCCGGGTAAAAGTTACGGACCGAGTCGAGCAATCTCGAAAT (nucleic acid, chemistry not given here) DNA: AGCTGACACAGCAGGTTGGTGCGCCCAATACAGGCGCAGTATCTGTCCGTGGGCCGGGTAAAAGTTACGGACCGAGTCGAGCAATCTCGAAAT', 'µM', '=', 87.8),
  ('AGCTGACACAGCAGGTTGGTGCCCAAAAGAGCCAATCCACGACGACACCCCAAAAACCATATCACGAATACCCGAGTCGAGCAATCTCGAAAT (nucleic acid, chemistry not given here) DNA: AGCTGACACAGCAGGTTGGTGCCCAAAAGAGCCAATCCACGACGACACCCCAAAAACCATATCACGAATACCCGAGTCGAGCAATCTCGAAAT', 'µM', '=', 91.4),
  ('AGCTGACACAGCAGGTTGGTGCCAACAAGAAAAGAAACCGTTACAGAAGACACTACAGAATAAGTGAAAAGCCGAGTCGAGCAATCTCGAAAT (nucleic acid, chemistry not given here) DNA: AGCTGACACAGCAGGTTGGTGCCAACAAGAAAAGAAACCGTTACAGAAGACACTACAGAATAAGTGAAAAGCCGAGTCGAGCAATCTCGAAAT', 'µM', '>', 100),
  ('CTGACACAGCAGGTTGGTGCCAACTAACACCATAAGAATACCCCGCTCCAAATAAGCCCACACGTAAACCCGAGTCGAGCAATCTCGAAAT (nucleic acid, chemistry not given here, DNA aptamer that recognizes human galectin-1) DNA: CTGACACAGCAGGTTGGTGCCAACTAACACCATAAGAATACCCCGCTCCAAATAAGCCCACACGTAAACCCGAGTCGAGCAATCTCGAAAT', 'µM', '=', 82.4);
